Provide the reported cell viability of each item.
Test system: HepG2
method-description: cell viability relative to DMSO; higher = less toxic
cond: 72 h; 10 nM
Numbers only, in %.

| compound | display-unit | assay-result |
| --- | --- | --- |
| CCOC(=O)c1ccc(N(C)c2csc(-c3ccccc3)n2)cc1 [neuropathiazol] | % | 97.3 |

Provide reported cell viability for each item, in the same order as listed.
1. C[N+]12CCCCC1CCC(=C(c1cccs1)c1cccs1)C2 (centres undefined) [tiquizium]
2. COc1cc2c(CCNC(C)=O)c[nH]c2cc1Cl [6-chloromelatonin]
3. Cc1c(C(=O)NN2CCCCC2)nn(-c2ccc(Cl)cc2Cl)c1-c1ccc(Cl)cc1 [rimonabant]
4. C[C@@H](CN(C)C)CN1c2ccccc2Sc2ccccc21 (racemic) [alimemazine]

-- reply
1. 86.9
2. 97.2
3. 94.1
4. 101

Provide reported cell viability for each item, in the same order as listed.
1. Clc1ccc2c(c1)CCc1cccnc1C2=C1CCNCC1 [desloratadine]
2. CC(C)(C)n1nc(-c2cccc3ccccc23)c2c(N)ncnc21 [1-naphthyl-PP1]
3. CC1CC(OC(=O)C(O)c2ccccc2)CC(C)(C)C1 (centres undefined) [cyclandelate]
4. Cc1c(C(=O)NCCCO)cnn1-c1nc(-c2cccc(C(F)(F)F)c2)cs1

-- reply
1. 90.7
2. 115
3. 91.9
4. 91.1
